Answer each item with its documented thermal shift delta Tm.
- Test system: LOC_OS01G14860-cb001
- Assay Comment: thermal shift delta Tm vs DMSO control; higher = stronger stabilization (binding);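 further: purified Escherichia coli-expressed rice kinase domain construct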
- Protocol Conditions: 12.5 µM; protein concentration 2 µM
One number for each entry, in °C.

O=c1cc(-c2cccc3c2Sc2ccccc2S3)oc(N2CCOCC2)c1
2.44
O=c1ncn2nc(Sc3ccc(F)cc3F)ccc2c1-c1c(Cl)cccc1Cl
0.42
Cc1c[nH]c2nc(Nc3ccc(N4CCN(C)CC4)c(F)c3)nc(-c3cccc(CC#N)c3)c12
5.41
CC(C)c1cnn2c(NCc3ccccc3-n3cccn3)nc(OC3CCCNC3)nc12 (centres undefined)
0.39
Cc1ccc(-n2nc(C(C)(C)C)cc2NC(=O)Nc2ccc(OCCN3CCOCC3)c3ccccc23)cc1
1.26
CN1C(=O)[C@@H](NC(=O)c2n[nH]c(Cc3ccccc3)n2)COc2ccccc21
0.52

For every item below, please supply its thermal shift delta Tm.
1. Cc1cc(CN2CCN(c3c(Br)cnc4nc(-c5ccc(N6CCN(C)CC6)cc5)[nH]c34)CC2)no1
2. NC(=O)Nc1cc(-c2cccc(F)c2)sc1C(=O)N[C@H]1CCCNC1
3. CSc1cccc(Nc2ncc3cc(-c4c(Cl)cccc4Cl)c(=O)n(C)c3n2)c1

A)
1. 0.83
2. 0.9
3. 0.06

====

- Tested on: LOC_OS03G27990-cb004
- Assay Comment: thermal shift delta Tm vs DMSO control; higher = stronger stabilization (binding)
- Protocol Conditions: 12.5 µM; protein concentration 2 µM
Measure Name: thermal shift delta Tm (°C)
One number for each entry, in °C.

CN(C)Cc1cccc(N/C(=C2\C(=O)Nc3cc(C(N)=O)ccc32)c2ccccc2)c1
3.05
CC1(C)C=Cc2c(ccc3c2OC[C@@H](c2ccc(O)cc2O)C3)O1
0.6
CNC(=O)c1cccc(-c2ccc3c(N4CCOC[C@@H]4C)nc(N4CCOC[C@@H]4C)nc3n2)c1
0.11

Turning to the following compound.
Q) Recall and state the measured thermal shift delta Tm for CS(=O)(=O)c1ccc(-c2cnc(N)c(C(=O)Nc3ccccc3)n2)cc1 .
A) 0.7

====

- System: LOC_OS01G48390-cb002
- Assay Comment: thermal shift delta Tm vs DMSO control; higher = stronger stabilization (binding)
- Protocol Conditions: 12.5 µM; protein concentration 2 µM
Answer each item with its documented thermal shift delta Tm.
Answers are plain numbers, in °C.

Illustrative cases are given below, each with its answer.
Cc1cn(-c2cc(NC(=O)c3ccc(C)c(Nc4nccc(-c5cccnc5)n4)c3)cc(C(F)(F)F)c2)cn1
0.45
CS(=O)(=O)CCNCc1ccc(-c2ccc3ncnc(Nc4ccc(OCc5cccc(F)c5)c(Cl)c4)c3c2)o1
1.79
COCCOc1cnc2ccn([C@H](C)c3nnc4c(F)cc(-c5cnn(C)c5)cn34)c(=O)c2c1
0.28
Nc1nc(N)c2nc(-c3cccc(O)c3)c(-c3cccc(O)c3)nc2n1
0.4
CC(C)(C)NC(=O)c1cncn1C1CCN(c2ccc(-c3nnc(C(F)(F)F)o3)cn2)CC1
0.3

For every item below, please supply its thermal shift delta Tm.
1. Nc1nccc(Oc2ccc(NC(=O)c3c[nH]cc(-c4ccc(F)cc4)c3=O)cc2F)c1Cl
2. Cn1c(Nc2ccc(C(F)(F)F)cc2)nc2cc(Oc3ccnc(-c4ncc(C(F)(F)F)[nH]4)c3)ccc21
3. CNC(=O)c1cc(Oc2ccc(NC(=O)Nc3ccc(Cl)c(C(F)(F)F)c3)c(F)c2)ccn1
4. O=C(O)c1ccc2c(c1)nc(Nc1cccc(Cl)c1)c1ccncc12

A)
1. 2.63
2. 4.18
3. 0.48
4. 0.06

For every item below, please supply its thermal shift delta Tm.
1. COc1ccc(-c2ccc3c(N4CCOCC4)nc(N4C[C@@H](C)O[C@@H](C)C4)nc3n2)cc1CO
2. CCn1c(N)c(C(=O)NC)c(=O)c2ccc(C#CC(C)(O)COC)nc21 (configuration not stated)
3. O=C1NC(=O)/C(=C/c2ccc3c(c2)OC(F)(F)O3)S1
4. CC(C)(C)c1cc(NC(=O)Nc2ccc(-c3cn4c(n3)sc3cc(OCCN5CCOCC5)ccc34)cc2)no1
5. NC1(Cc2ccc(Cl)cc2)CCN(c2ncnc3[nH]ccc23)CC1
6. CCn1c(=O)c(-c2cc[nH]n2)cc2c(C)nc(N)nc21
7. O=C1NC(=O)C(c2cnc3ccccn23)=C1c1cn2c3c(cc(F)cc13)CN(C(=O)N1CCCCC1)CC2

A)
-0.04
0.18
0.77
0.74
3.31
0.13
0.1

Q) Recall and state the measured thermal shift delta Tm for CC(C)NC(=O)C1CCC(n2c(NC(=O)c3ccc(F)cc3)nc3ccc(CN4CCC(C(C)(C)O)CC4)cc32)CC1 (configuration not stated) .
A) 2.61

The reported measurements were obtained from the supplement of paper PMC9694430.
